Data origin: ChEMBL document CHEMBL1201862

Please respond with reported GI50 for every item in the list.
- Tested on: NCI-H23
- EXPERIMENTAL_DETAILS: NCI tumour cell line growth inhibition, 48 h
Calls of active or inactive are those of the source. Rule as the data show it: active = GI50 up to about 1.1 µM and inactive = higher. Peptide text beside a SMILES is read from it. * marks the point of attachment. Cbz = O=C(OCc1ccccc1)*; Boc = CC(C)(C)OC(=O)*; OBn = c1ccc(CO*)cc1

q: Give its GI50 value. Item: CC(C)n1c(=O)[nH]n(-c2ccccc2)c1=O
a: > 100 µM (inactive)

q: Give its GI50 value. Item: CC(=O)N(C)c1cc(NCc2ccccc2)ccc1OCc1ccccc1
a: 24.4 µM (inactive)

q: Give its GI50 value. Item: O=c1c2cc(Br)cc(Br)c2nc(CCCl)n1-c1ccc(O)c([N+](=O)[O-])c1
a: 21.7 µM (inactive)

q: Give its GI50 value. Item: Cn1c2ccccc2n2c3ccccc3c(=S)c(C#N)c12
a: > 100 µM (inactive)

q: Give its GI50 value. Item: CN(CCS(=O)(=O)N1C(=O)C2CCCN2C(=O)[C@@H]1Cc1ccccc1)C(=O)OCc1ccccc1 (stereo partly drawn)
a: 53.2 µM (inactive)

q: Give its GI50 value. Item: COC(=O)C(CCCCNC(=O)OCc1ccccc1)NC(=O)C(CCC(=O)OCc1ccccc1)NC(=O)OC(C)(C)C (stereo not drawn) (Boc-Glu(OBn)-Lys(Cbz)-OMe; configuration not given here)
a: > 100 µM (inactive)

q: Give its GI50 value. Item: O=C(/C=C/c1ccc2ccccc2c1)NCc1ccc(C(=O)NCCc2ccccc2)cc1
a: > 100 µM (inactive)

q: Give its GI50 value. Item: C/C=C(\C)c1cc(=O)c2c(C)cc3c(c2o1)C(=O)c1c(O)c(C2CC(C)(N(C)C)C(OC(C)=O)C(C)O2)cc(C2CC(N(C)C)C(O)C(C)O2)c1C3=O (stereo not drawn)
a: 0.971 µM (active)

====

Please respond with reported GI50 for every item in the list.
- Test system: IGROV-1
- EXPERIMENTAL_DETAILS: NCI tumour cell line growth inhibition, 48 h
Activity calls are given as the source filed them. No stated cut-off is given here; in the data, active = GI50 up to about 1.1 µM and inactive = higher.

q: Give its GI50 value. Item: CCCCc1c2c(nc3c1CCCC3O)/C(=C/c1ccccc1)CCC2 (stereo not given)
a: 45.8 µM (inactive)

q: Give its GI50 value. Item: CO/N=C1\CC(NC(=O)CNC(=O)OC(C)(C)C)c2ccsc21 (stereo not given)
a: > 100 µM (inactive)

q: Give its GI50 value. Item: CC(=O)c1ccc(NC(=O)C(=O)CC(=O)c2sc(-n3nc(-c4ccccc4)cc3-c3ccccc3)nc2C)cc1
a: > 100 µM (inactive)

q: Give its GI50 value. Item: Cc1nc(-n2nc(-c3ccccc3)cc2-c2ccccc2)sc1C(=O)/C=C/c1cccc([N+](=O)[O-])c1
a: 24.1 µM (inactive)

q: Give its GI50 value. Item: O/N=C1\SC(=N\O)/C(=N/O)S\C1=N/O
a: > 100 µM (inactive)

====

- Test system: COLO 205
- EXPERIMENTAL_DETAILS: NCI tumour cell line growth inhibition, 48 h
Activity calls are given as the source filed them. Cut-off read from the data, not from the text of the source: active = GI50 up to about 1.1 µM and inactive = higher.
MEASURED_QUANTITY: GI50

q: Tell me reported GI50 for NN(CC(=O)O)CC(=O)O , tested with COLO 205.
a: > 100 µM (inactive)

q: Tell me reported GI50 for NC(=O)Cc1ncn(-c2ccccc2)n1 , tested with COLO 205.
a: > 100 µM (inactive)

q: Tell me reported GI50 for CCN(CC)CCC(=O)c1ccc(Oc2ccc(F)cc2)cc1 , tested with COLO 205.
a: 19.2 µM (inactive)

q: Tell me reported GI50 for CC(=O)OC1(C)C(=O)OC1(C)C(C)=O (stereo unspecified) , tested with COLO 205.
a: > 100 µM (inactive)

q: Tell me reported GI50 for CC1(C)N=C(N)N=C(N)N1c1cccc(C(=O)Nc2ccc(S(=O)(=O)F)cc2)c1 , tested with COLO 205.
a: > 100 µM (inactive)

q: Tell me reported GI50 for Cc1cccc(C(C)C)c1NC(=O)C(=O)CC(=O)c1sc(Nc2ccccc2Cl)nc1C , tested with COLO 205.
a: 29.9 µM (inactive)

====

- System: UO-31
- EXPERIMENTAL_DETAILS: NCI tumour cell line growth inhibition, 48 h
Active and inactive are the calls of the source. Cut-off read from the data, not from the text of the source: active = GI50 up to about 1.1 µM and inactive = higher.
Thanks in advance; please answer with one of these: label 1 for active, label 0 for inactive

q: I'd appreciate the recorded outcome for COc1cc2c(c3c1c(=O)c1ccccc1n3C)C=CC1(CCCCC1)O2 from this test.
a: label 1

q: I'd appreciate the recorded outcome for COC(=O)C[C@](O)(CCC(C)(C)O)C(=O)O[C@@H]1C(OC)=C[C@]23CCCN2CCc2cc4c(cc2[C@H]13)OCO4 [HARRINGTONINE] from this test.
a: label 0

q: I'd appreciate the recorded outcome for C/C(=C\COP(=O)(O)CP(=O)(O)O)CC/C=C(\C)CNc1ccccc1 from this test.
a: label 0

q: I'd appreciate the recorded outcome for COc1cc(C(=O)C/C(CCC(=O)Nc2ccccc2[N+](=O)[O-])=N\NC(=O)C(N)=O)ccc1O from this test.
a: label 0

====

Please respond with reported GI50 for every item in the list.
- Tested on: MDA-N
- EXPERIMENTAL_DETAILS: NCI tumour cell line growth inhibition, 48 h
Activity calls are given as the source filed them. No stated cut-off is given here; in the data, active = GI50 up to about 1.1 µM and inactive = higher.

q: Tell me reported GI50 for C=C1CC[C@@H](CCC2CCC3(OC2)O[C@]2(O)CC[C@@]3(C)OC2(C)C)C(C)(C)[C@H]1C/C=C1\CCOC1=O (stereo partly drawn) , tested with MDA-N.
a: 20 µM (inactive)

q: Tell me reported GI50 for COc1ccc(/N=N/c2c(C)c(C#N)c(=S)n(C3OC(COC(C)=O)C(OC(C)=O)C(OC(C)=O)C3OC(C)=O)c2C)cc1 (stereo not drawn) , tested with MDA-N.
a: > 100 µM (inactive)

q: Tell me reported GI50 for CC(NNC(=O)c1cc[n+]([BH2-]C#N)cc1)C(F)(F)F (stereo not drawn) , tested with MDA-N.
a: > 100 µM (inactive)

q: Tell me reported GI50 for COC(=O)CC(C#N)(OP1(=O)OC(c2ccccc2)C(C)N1C)c1ccccc1 (stereo not drawn) , tested with MDA-N.
a: 26.8 µM (inactive)

q: Tell me reported GI50 for O=C1COc2cccnc2N1CCCCO , tested with MDA-N.
a: > 100 µM (inactive)

q: Tell me reported GI50 for O=C1CNCCCN2CCN(CCCNCC(=O)Nc3ccc(cc3)S(=O)(=O)c3ccc(cc3)NC(=O)CNCCCN3CCN(CCCNCC(=O)Nc4ccc(cc4)S(=O)(=O)c4ccc(cc4)N1)CC3)CC2 , tested with MDA-N.
a: 19.3 µM (inactive)

q: Tell me reported GI50 for COC(=O)[C@H](Cc1ccccc1)NC(=O)OCC1OC(n2cc(C)c(=O)[nH]c2=O)CC1N=[N+]=[N-] (stereo partly drawn) , tested with MDA-N.
a: > 100 µM (inactive)

q: Tell me reported GI50 for C=C(Cl)C(Cl)(CCl)CCC(Br)C(C)(C)Br (stereo not drawn) , tested with MDA-N.
a: > 10 µM (inactive)

====

- System: SF-268
- EXPERIMENTAL_DETAILS: NCI tumour cell line growth inhibition, 48 h
Active and inactive are the calls of the source. Cut-off read from the data, not from the text of the source: active = GI50 up to about 1.1 µM and inactive = higher.
Please respond with reported GI50 for every item in the list.

q: Give its GI50 value. Item: Cc1ccc(NC(=O)C(=O)CC(=O)c2sc(Nc3c(C)cccc3C)nc2C)cc1C
a: > 100 µM (inactive)

q: Give its GI50 value. Item: CCn1c(=O)nc2n(-c3ccc(SC)cc3)c3ccccc3nc-2c1=O
a: 79.8 µM (inactive)

q: Give its GI50 value. Item: O=C(O)c1nnsc1COCc1ccccc1
a: > 100 µM (inactive)

q: Give its GI50 value. Item: CO/C(N)=C(C#N)/N=C/c1ccsc1
a: 44.7 µM (inactive)

q: Give its GI50 value. Item: Cc1cc(N(CCC#N)CCC#N)ccc1CC1N=C(c2ccccc2)OC1=O (stereo not given)
a: > 100 µM (inactive)

q: Give its GI50 value. Item: CC(=O)NCCCCNCCCNC(C)=O
a: > 100 µM (inactive)

q: Give its GI50 value. Item: CC(=O)OC1(C)C(=O)OC1(C)C(C)=O (stereo not given)
a: > 100 µM (inactive)

q: Give its GI50 value. Item: COc1ccc(/N=N/c2c(C)c(C#N)c(=S)n(C3OC(COC(C)=O)C(OC(C)=O)C(OC(C)=O)C3OC(C)=O)c2C)cc1 (stereo not given)
a: > 100 µM (inactive)

q: Give its GI50 value. Item: COc1cc(C(=O)C/C(CCC(=O)Nc2ccccc2[N+](=O)[O-])=N\NC(=O)C(N)=O)ccc1O
a: > 100 µM (inactive)

q: Give its GI50 value. Item: O=C(OCc1ccccc1[N+](=O)[O-])N1c2ccccc2[C@@]23O[C@]24CCC[C@H]3C#C/C=C\C#C[C@H]14
a: 75 µM (inactive)
